Taken from paper PMC8868586.

test_system: α-glucosidase (Saccharomyces cerevisiae)
Construct: purchased Sigma-Aldrich
Sequence (P53341 whole entry): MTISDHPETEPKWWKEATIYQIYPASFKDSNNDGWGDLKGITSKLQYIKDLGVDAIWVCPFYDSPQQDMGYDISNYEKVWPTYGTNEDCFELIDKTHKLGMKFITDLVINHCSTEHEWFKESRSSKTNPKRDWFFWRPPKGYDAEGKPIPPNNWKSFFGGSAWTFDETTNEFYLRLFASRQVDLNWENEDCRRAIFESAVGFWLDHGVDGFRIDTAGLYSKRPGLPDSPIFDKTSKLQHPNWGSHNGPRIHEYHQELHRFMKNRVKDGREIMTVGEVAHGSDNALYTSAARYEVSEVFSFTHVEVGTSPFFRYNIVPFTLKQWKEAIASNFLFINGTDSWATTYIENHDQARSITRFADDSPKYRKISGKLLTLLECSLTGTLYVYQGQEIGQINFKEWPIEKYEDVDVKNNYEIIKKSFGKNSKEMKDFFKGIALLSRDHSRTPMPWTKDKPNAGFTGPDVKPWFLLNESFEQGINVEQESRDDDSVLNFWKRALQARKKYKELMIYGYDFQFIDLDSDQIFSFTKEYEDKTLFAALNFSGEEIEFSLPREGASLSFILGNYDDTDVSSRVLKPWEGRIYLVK
experimental_details: α-Glucosidase inhibitory activity assay
Type: biochemical
quantity_name: pIC50
The meaning of pIC50 here: minus log10 of the concentration in molar units.

Exercise: Form field: pIC50 recorded for O=c1c2cc(O)c(O)cc2oc2c([C@@H]3O[C@H](CO)[C@@H](O)[C@H](O)[C@H]3O)c(O)cc(O)c12 with α-glucosidase (Saccharomyces cerevisiae) (enter value)
Key: 3.36

----------
experimental_details: DPPH radical scavenging assay
test_context: isolated components
quantity_name: DPPH IC50

Exercise: What value of DPPH IC50 has been recorded for this entry: C[C@H]1CC[C@@]2(OC1)O[C@H]1C[C@H]3[C@@H]4CC[C@@H]5C[C@@H](O[C@@H]6O[C@H](CO)[C@H](O)[C@H](O)[C@H]6O[C@@H]6O[C@H](CO)[C@@H](O)[C@H](O)[C@H]6O)CC[C@]5(C)[C@H]4CC[C@]3(C)[C@H]1[C@@H]2C
Key: >200 µg/mL

Exercise: And O=c1c2cc(O[C@@H]3O[C@H](CO)[C@@H](O)[C@H](O)[C@H]3O)c(O)cc2oc2cc(O)c([C@@H]3O[C@H](CO)[C@@H](O)[C@H](O)[C@H]3O)c(O)c12 ?
Key: >200 µg/mL

Exercise: What do you have for O=c1c2cc(O)c(O)cc2oc2c([C@@H]3O[C@H](CO)[C@@H](O)[C@H](O)[C@H]3O)c(O)cc(O)c12 ?
Key: 16.7 ± 1.1 µg/mL

Exercise: Now give it for O=c1c2cc(O)c(O)cc2oc2cc(O)c([C@@H]3O[C@H](CO)[C@@H](O)[C@H](O)[C@H]3O)c(O)c12 too.
Key: 5.4 ± 0.3 µg/mL

Exercise: // same read-out, input: Cc1cc(C(C)(C)C)c(O)c(C(C)(C)C)c1 [BHT, Butylated hydroxytoluene, reference compound]
Key: 27.2 ± 1.9 µg/mL
